Biological target: recombinant human glucokinase (Homo sapiens, UniProt P35557)
Construct: Full-length glucokinase (beta cell isoform) was His-tagged at the N-terminus and purified by a Ni column followed by size exclusion chromatography as described above; His tag; made in house; host or cells: E. coli BL21(DE3), vector pBCGK
Sequence (P35557 whole entry, canonical isoform): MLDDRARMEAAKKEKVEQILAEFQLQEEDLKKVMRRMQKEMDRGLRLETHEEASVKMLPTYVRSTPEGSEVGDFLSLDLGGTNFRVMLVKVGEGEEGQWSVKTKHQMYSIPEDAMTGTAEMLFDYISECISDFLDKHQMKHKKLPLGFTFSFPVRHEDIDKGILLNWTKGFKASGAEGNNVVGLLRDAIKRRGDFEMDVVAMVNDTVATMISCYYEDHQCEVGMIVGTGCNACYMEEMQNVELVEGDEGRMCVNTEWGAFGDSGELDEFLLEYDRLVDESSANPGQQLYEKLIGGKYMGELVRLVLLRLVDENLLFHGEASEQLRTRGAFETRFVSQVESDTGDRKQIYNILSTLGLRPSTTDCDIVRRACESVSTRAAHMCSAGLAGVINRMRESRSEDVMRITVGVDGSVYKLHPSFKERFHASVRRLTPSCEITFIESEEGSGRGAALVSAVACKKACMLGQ
Test: Assay 2: Evaluating Activator Potency in a Matrix Assay at Multiple Glucose Concentrations
Type: biochemical
Conditions: Assay 2 matrix assay; 16 glucose concentrations; intrinsic EC50 = concentration affording a 50% reduction in the enzyme's Km (for glucose); read-out: Glucokinase EC50
assay-endpoint: log10 of EC50 (log10 of the value in nM)

molecule | log10 of EC50
CCn1cc2c(Oc3ccc(S(N)(=O)=O)cc3)cc(C(=O)Nc3ccc(F)cn3)cc2n1 [Example 1CT] | 3.26
CCn1cc2c(Oc3ccc(S(C)(=O)=O)cc3)cc(C(=O)Nc3ccc(F)cn3)cc2n1 [Example 1CI] | 2.85
CCn1cc2c(Oc3cnc(N(C)S(C)(=O)=O)cn3)cc(C(=O)Nc3ccc(C)cn3)cc2n1 [Example 1AN] | 2.73
CNS(=O)(=O)c1ccc(Oc2cc(C(=O)Nc3ccn(C)n3)cc3nn(C)cc23)cc1 [Example 1BL] | 3.26
CCn1cc2c(Oc3ccc4c(c3)CCS4(=O)=O)cc(C(=O)Nc3ccc(C)cn3)cc2n1 [Example 1AW] | 2.99
CCn1cc2c(Oc3ccc(S(C)(=O)=O)cc3)cc(C(=O)Nc3cnn(C)n3)cc2n1 [Example 1CA] | 3.93
Cn1cc(NC(=O)c2cc(Oc3ccc(S(C)(=O)=O)cc3)c3cn(C)nc3c2)nn1 [Example 1CJ] | 2.45
Cc1cnc(NC(=O)c2cc(Oc3ccc(C(=O)N(C)C)cc3)c3cn(C)nc3c2)cn1 [Example 1AG] | 2.85
Cc1ccc(NC(=O)c2cc(Oc3ccc(S(C)(=O)=O)nc3)c3cn(C)nc3c2)nc1 [Example 1AP] | 3.16
CCn1cc2c(Oc3ccc(S(C)(=N)=O)cc3)cc(C(=O)Nc3ccc(C)cn3)cc2n1 (single isomer, unassigned) [Example 1CX] | 3.14
CCn1cc2c(Oc3cnc(C(N)=O)cn3)cc(C(=O)Nc3ccc(C)cn3)cc2n1 [Example 1CO] | 3.27
CCn1cc2c(Oc3ccc(S(C)(=O)=O)cc3)cc(C(=O)Nc3ccc(C(N)=O)cn3)cc2n1 [Example 1CD] | 2.42
Cn1ccc(NC(=O)c2cc(Oc3ccc(S(N)(=O)=O)cc3)c3cn(C)nc3c2)n1 [Example 1AU] | 3.79
CCn1cc2c(Oc3cnc(C(=O)N(C)C)nc3)cc(C(=O)Nc3ccc(C)cn3)cc2n1 [Example 1BD] | 2.58
CCn1cc2c(Oc3ccc(S(C)(=O)=O)cc3)cc(C(=O)Nc3cnc(OC)cn3)cc2n1 [Example 1AX] | 2.75
CCn1cc2c(Oc3ccc(S(N)(=O)=O)cc3)cc(C(=O)Nc3cnc(OC)cn3)cc2n1 [Example 1CS] | 2.62
CCn1cc2c(Oc3ccc(S(C)(=O)=O)cc3)cc(C(=O)Nc3ccc(CC(N)=O)cn3)cc2n1 [Example 1CE] | 2.75
CCn1cc2c(Oc3ccc(S(C)(=N)=O)cc3)cc(C(=O)Nc3ccc(C)cn3)cc2n1 (stereo not shown) [Example 1CV] | 2.85
CCn1cc2c(Oc3ccc(S(C)(=O)=O)cc3)cc(C(=O)Nc3ccc(C(=O)OC)cn3)cc2n1 [Example 1CK] | 2.60
